Assay: Drug level in mouse blood at 50 mg/kg, sc after 30 mins by microbiological assay
Type: ADME, organism-based
Set-up: dose 50 mg/kg, route subcutaneous
Conditions: read-out: Drug uptake
readout.label: concentration at 0.5 h (ng/mL)

INSERT INTO results (compound, quantity_unit, reported) VALUES
  ('CC(=O)OCC1=C(C(=O)O)N2C(=O)[C@@H](NC(=O)[C@H](N)c3ccccc3)[C@H]2SC1', 'ng/mL', 21700),
  ('N[C@@H](C(=O)N[C@@H]1C(=O)N2C(C(=O)O)=C(Cc3cncc(C(=O)O)c3)CS[C@H]12)c1ccccc1', 'ng/mL', 35800),
  ('N[C@@H](C(=O)N[C@@H]1C(=O)N2C(C(=O)O)=C(Cc3ccc(C(=O)O)cc3)CS[C@H]12)c1ccccc1', 'ng/mL', 68800),
  ('N[C@@H](C(=O)N[C@@H]1C(=O)N2C(C(=O)O)=C(Cc3ccccc3C(=O)O)CS[C@H]12)c1ccccc1', 'ng/mL', 58000),
  ('O=C(Cc1cccs1)N[C@@H]1C(=O)N2C(C(=O)[O-])=C(C[n+]3ccccc3)CS[C@H]12', 'ng/mL', 18500),
  ('CC1=C(C(=O)O)N2C(=O)[C@@H](NC(=O)[C@H](N)c3ccccc3)[C@H]2SC1 [CEPHALEXIN ANHYDROUS]', 'ng/mL', 13300),
  ('N[C@@H](C(=O)N[C@@H]1C(=O)N2C(C(=O)O)=C(Cc3cccc(C(=O)O)c3)CS[C@H]12)c1ccccc1', 'ng/mL', 49600);

====

Recorded concentration at 10 min, one value per entry.
Experiment: Drug level in mouse blood at 50 mg/kg, po after 10 mins by microbiological assay
Format: ADME, organism-based
Set-up: dose 50 mg/kg, route oral
Details: read-out: Drug uptake
readout.label: concentration at 10 min (ng/mL)

INSERT INTO results (item_smiles, reported) VALUES
  ('N[C@@H](C(=O)N[C@@H]1C(=O)N2C(C(=O)O)=C(Cc3ccccc3)CS[C@H]12)c1ccccc1', 110),
  ('CC(=O)OCC1=C(C(=O)O)N2C(=O)[C@@H](NC(=O)[C@H](N)c3ccccc3)[C@H]2SC1', 1700),
  ('N[C@@H](C(=O)N[C@@H]1C(=O)N2C(C(=O)O)=C(Cc3cncc(C(=O)O)c3)CS[C@H]12)c1ccccc1', 550),
  ('N[C@@H](C(=O)N[C@@H]1C(=O)N2C(C(=O)O)=C(Cc3cccnc3)CS[C@H]12)c1ccccc1', 2850);

====

Test: Drug level in mouse blood at 50 mg/kg, sc after 10 mins by microbiological assay
Format: ADME, organism-based
Set-up: dose 50 mg/kg, route subcutaneous
Details: read-out: Drug uptake
Label rule, in plain words: concentration at 10 min of 60 µg/mL and up is true (1), under 60 µg/mL is false (0).

INSERT INTO assay_data (compound, qualitative_label) VALUES
  ('O=C(Cc1cccs1)N[C@@H]1C(=O)N2C(C(=O)[O-])=C(C[n+]3ccccc3)CS[C@H]12 [CEPHALORIDINE]', 'false (0)'),
  ('N[C@@H](C(=O)N[C@@H]1C(=O)N2C(C(=O)O)=C(Cc3cccc(C(=O)O)c3)CS[C@H]12)c1ccccc1', 'true (1)'),
  ('CC1=C(C(=O)O)N2C(=O)[C@@H](NC(=O)[C@H](N)c3ccccc3)[C@H]2SC1 [CEPHALEXIN ANHYDROUS]', 'false (0)'),
  ('N[C@@H](C(=O)N[C@@H]1C(=O)N2C(C(=O)O)=C(Cc3ccc(C(=O)O)cc3)CS[C@H]12)c1ccccc1', 'true (1)'),
  ('N[C@@H](C(=O)N[C@@H]1C(=O)N2C(C(=O)O)=C(Cc3ccccc3C(=O)O)CS[C@H]12)c1ccccc1', 'true (1)'),
  ('N[C@@H](C(=O)N[C@@H]1C(=O)N2C(C(=O)O)=C(Cc3cncc(C(=O)O)c3)CS[C@H]12)c1ccccc1', 'true (1)'),
  ('CC(=O)OCC1=C(C(=O)O)N2C(=O)[C@@H](NC(=O)[C@H](N)c3ccccc3)[C@H]2SC1 [CEPHALOGLYCIN]', 'false (0)');
